Reported TGI values are given for each entry in this list.
Test system: SF-268 CNS
Experiment: NCI tumour cell line growth inhibition, 48 h
Answer with a number only, understood to be in µM.

// solved cases for TGI follow
CCN1CCC(O)(/C=C/c2ccc(C)cc2C)C(C(=O)/C=C/c2ccc(C)cc2C)C1 (stereo unspecified)	9.12
Cc1c(C(=O)/C=C/c2ccccc2)[n+](=O)c2ccccc2n1[O-]	40.1
Cn1c2ccccc2c(=NNc2cccc(C(=O)O)c2)c2ccccc21	39
CCCCCCCCCCCCCCCCCCOc1ccccc1CC(=O)OCC[N+]1(C)CCCC1	3.34
CC/C=C\C[C@H]1C/C=C2/C(=O)C=C[C@@H]2C/C=C\CCCC(=O)O1	9.49

Field request: TGI | item: O=NN(CCCl)C(=O)NC1CCC(O)CC1 (stereo unspecified) 43.3

Field request: TGI | item: `[N-]=[N+]=NC1=C(c2ccccn2)C(=O)c2cccc3cccc1c23` 65.9

Field request: TGI | item: `CN(C)C(=O)[C@H](O)[C@H](Cc1ccccc1)NC(=O)c1cc2cc(Cl)ccc2[nH]1` 73.3

Field request: TGI | item: `CC1=C(O)C(=O)C=C2C1=CC=C1[C@@]2(C)CC[C@@]2(C)[C@@H]3C[C@](C)(C(=O)O)CC[C@]3(C)CC[C@]12C` 0.106

Field request: TGI | item: `O=c1cccc(C#CC#CC2=CCCCC2)o1` 20.6
